Tested on: WNV (NY-99 strain) infection of Vero E6 cells
Test: Dose response assay in CPE based screen (antiviral efficacy)
Format: cell-based, West Nile virus
Details: Table 1; CPE based dose response, Vero E6, WNV 0.04 MOI, 96 h; read-out: EC50
# EC50 per record follows
Give the value in µM but do not write µM after it.

> print(dat)
                              smiles.record  outcome.measure  data.value
1      Cc1oc(-c2ccccc2Cl)nc1CSCC(=O)N1CCCC1             EC50        29.6
2  CC(C)C[C@H](NC(=O)c1nc[nH]c1C(=O)N1CCN(C(=O)OC(C)(C)C)CC1)C(=O)OC(C)(C)C             EC50        19.6

From here, focus on the item given below.
What value of EC50 on WNV (NY-99 strain) infection of Vero E6 cells does "CC(=O)OC[C@H]1O[C@@H](n2ncc(=O)[nH]c2=O)[C@H](OC(C)=O)[C@@H]1OC(C)=O" have?
20

The origin of these recorded values is paper PMC4839297.
